Measured pIC50 values are reported for all entries that follow.
# measured_on: mGlyT-1b (Mus musculus, UniProt P28571)
# Construct: host or cells: Flp-in-CHO
# Sequence (P28571 1-651 isoform P28571-2): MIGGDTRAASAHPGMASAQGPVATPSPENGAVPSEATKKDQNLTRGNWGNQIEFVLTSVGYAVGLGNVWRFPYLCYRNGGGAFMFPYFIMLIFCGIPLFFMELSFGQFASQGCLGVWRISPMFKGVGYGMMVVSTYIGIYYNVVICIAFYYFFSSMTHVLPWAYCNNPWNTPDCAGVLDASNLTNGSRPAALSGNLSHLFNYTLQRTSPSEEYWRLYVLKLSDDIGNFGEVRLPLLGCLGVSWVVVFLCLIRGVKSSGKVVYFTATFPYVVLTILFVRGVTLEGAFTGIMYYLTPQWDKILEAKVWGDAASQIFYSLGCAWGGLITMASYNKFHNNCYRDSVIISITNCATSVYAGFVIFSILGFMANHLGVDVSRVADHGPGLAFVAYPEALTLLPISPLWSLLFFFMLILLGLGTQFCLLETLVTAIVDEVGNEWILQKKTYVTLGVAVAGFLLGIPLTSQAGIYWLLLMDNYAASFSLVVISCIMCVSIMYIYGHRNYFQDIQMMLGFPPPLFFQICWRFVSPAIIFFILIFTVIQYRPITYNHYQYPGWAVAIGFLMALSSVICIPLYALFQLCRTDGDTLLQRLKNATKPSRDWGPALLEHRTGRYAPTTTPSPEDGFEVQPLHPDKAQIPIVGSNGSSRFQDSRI
# assay_comment: Glycine Uptake Inhibition Assay (mGlyT-1b)
# Type: cell-based
# experimental_context: IC50 data
pIC50: −log10 of the molar value.
metric: pIC50

INSERT INTO measurements (compound, assay_value) VALUES
  ('CCc1cccc(C2CC2)c1C(=O)N[C@@H]1CCC[C@@H]1N1CCCC1 (single isomer, unassigned) [Example 121]', 7.44),
  ('O=C(NC1CCCC1N1CCCC1)c1ccc(C(F)(F)F)cc1C1CC1 (single isomer, unassigned) [Example 96]', 7.37),
  ('CCc1cccc(C2CC2)c1C(=O)N[C@@H]1CCC[C@@H]1N1CCCC1 (single isomer, unassigned) [Example 120]', 7.26),
  ('O=C(N[C@H]1CCC[C@H]1N1CCCC1)c1c(F)cc(C(F)(F)F)cc1C(F)(F)F (relative stereo)', 7.12);
